Entries and their measured GI50 follow.
system: HL-60(TB) leukemia; test: NCI tumour cell line growth inhibition, 48 h

[Q] Report GI50 for CC(C)c1ccc(Nc2ccc3c(OCCCN4CCN(C)CC4)cccc3n2)cc1 please.
[A] 10.5 µM

[Q] Follow-up item: COc1ncnc(C2CC2)c1-c1ncc2cnn(Cc3ccc(-c4nc(C(F)(F)F)cn4C(C)C)cc3)c2n1
[A] 31 µM

[Q] Follow-up item: COc1ccc(C2CC(c3cccc(Nc4ccncc4)c3)=NN2c2cc(Cl)cc(Cl)c2)cc1 (centres undefined)
[A] 2.17 µM

[Q] Follow-up item: CCOc1nc(-c2ccccc2)cc2c(O)c(-c3nnco3)[nH]c(=O)c12
[A] 5.86 µM

Where do the numbers come from? From PubChem BioAssay (NCI).
